These data points were gathered from ChEMBL document CHEMBL5113486.

TEST PROTOCOL: Cytotoxicity against human THP-1 cells assessed as cell growth inhibition
Format: toxicity, cell-based
OBSERVED PROPERTY: CC50

Previously resolved entries follow.
CHEMICAL STRING | OBSERVED PROPERTY | RESULT
Cn1c(-c2ccc(C#N)cc2)cnc1NC(=O)c1ncc[nH]1 | CC50 | > 100 µM
COc1cccc(-c2cnc(NC(=O)c3ncc[nH]3)n2C)c1 | CC50 | > 100 µM
COc1ccc(-c2cnc(NC(=O)c3cccc(OC)c3)n2C)cc1 | CC50 | > 100 µM
COc1ccc(-c2ccnc(NC(=O)c3ccc(F)cc3)c2)cc1 | CC50 | > 100 µM

Prompt: Item "COc1ccc(-c2cnc(NC(=O)c3cc(-c4ccccn4)n[nH]3)n2C)cc1" has what recorded CC50?
Response: ≥ 50 µM

Prompt: Same question for "Cc1ccc(C(=O)Nc2ncc(-c3ccccc3)n2C)cc1" please.
Response: > 50 µM

----------
TEST PROTOCOL: Selectivity index, ratio of CC50 for cytotoxicity against human THP-1 cells to IC50 for antileishmanial activity against Leishmania donovani infected in human THP-1 cells
Assay type: toxicity, cell-based
CONDITIONS USED: read-out: Ratio CC50/IC50
OBSERVED PROPERTY: selectivity ratio

Previously resolved entries follow.
CHEMICAL STRING | RESULT
COc1ccc2nc(NC(=O)c3ccc(F)cc3)n(C)c2c1 | > 2.3
COc1ccc(-c2cnc(NC(=O)c3cc(-c4ccccn4)n[nH]3)n2C)cc1 | > 19
COc1ccc(-c2cnc(NC(=O)c3ccc(F)cc3)n2C2CCCC2)cc1 | > 1
COc1ccc(-c2cnc(NC(=O)c3ccccc3O)n2C)cc1 | > 1
COc1ccc(-c2cnc(NC(=O)c3ccc(C#N)cc3)n2C)cc1 | > 1

Prompt: Item "CCC(=O)Nc1ncc(-c2ccc(OC)cc2)n1C" has what recorded selectivity ratio?
Response: > 1

----------
TEST PROTOCOL: Metabolic stability in human liver microsomes assessed as intrinsic clearance measured per mg protein
Format: ADME, Microsome
CONDITIONS USED: read-out: CLH
OBSERVED PROPERTY: microsomal CLint (µL/min/mg)
Please reply with the bare figure in µL/min/mg and do not write the unit itself.

Previously resolved entries follow.
CHEMICAL STRING | SCALE UNIT | microsomal CLint
O=C(Nc1ncc(-c2ccccc2)o1)c1ccc(F)cc1 | µL/min/mg | 90
Cn1c(-c2ccccc2)cnc1NC(=O)c1ncc[nH]1 | µL/min/mg | 20
COc1ccc(-c2cnc(NC(=O)c3ccc(F)cc3)n2C)cc1 | µL/min/mg | 30

Now for another entry.
Prompt: Item "Cn1c(-c2cccc(Cl)c2)cnc1NC(=O)c1ncc[nH]1" has what recorded microsomal CLint?
Response: 8

----------
TEST PROTOCOL: Selectivity index, ratio of CC50 for cytotoxicity against human THP-1 cells to IC50 for antileishmanial activity against Leishmania donovani infected in human THP-1 cells
Type: toxicity, cell-based
CONDITIONS USED: read-out: Ratio CC50/IC50
OBSERVED PROPERTY: selectivity ratio

Previously resolved entries follow.
CHEMICAL STRING | selectivity ratio
Cn1c(-c2ccccc2)cnc1NC(=O)c1cccc(Br)c1 | > 16
COc1ccc(-c2cnc(NC(=O)C3CCCCC3)n2C)cc1 | > 1

Prompt: Item "Cn1c(-c2ccccc2)cnc1NC(=O)c1cc(-c2ccccn2)[nH]n1" has what recorded selectivity ratio?
Response: > 74

Prompt: Same question for "Cn1c(-c2ccc([N+](=O)[O-])cc2)cnc1NC(=O)c1ccc(F)cc1" please.
Response: > 1
